Recorded % Oxycodone, % IVA-IVD in hydrolysis mixture values for a group of compounds are listed next.
type: physicochemical; conditions: […]; total 1 mg/ml; 0.1 N HCl 37° C.; 6.5 h
Quantity Measured: % Oxycodone, % IVA-IVD in hydrolysis mixture

- Compound: "COc1ccc2c3c1O[C@H]1[C@]4(CCC5(O)[C@@H](C2)N(C)CC[C@]315)O[C@H](C)C[C@H](C)O4 (some centres unmarked)"
  Result: "19.8%"
- Compound: "COc1ccc2c3c1O[C@H]1C4(CCC5(O)[C@@H](C2)N(C)CC[C@]315)O[C@H](C)C[C@@H](C)O4 (some centres unmarked)"
  Result: "0%"
- Compound: "COc1ccc2c3c1O[C@H]1C4(CCC5(O)[C@@H](C2)N(C)CC[C@]315)O[C@@H](C)C[C@H](C)O4 (some centres unmarked)"
  Result: "4%"
- Compound: "COc1ccc2c3c1O[C@H]1C(=O)CC[C@@]4(O)[C@@H](C2)N(C)CC[C@]314 [Oxycodone, oxycodone, reference compound]"
  Result: "66%"
- Compound: "COc1ccc2c3c1O[C@H]1[C@@]4(CCC5(O)[C@@H](C2)N(C)CC[C@]315)O[C@H](C)C[C@H](C)O4 (some centres unmarked)"
  Result: "10%"

###

type: physicochemical; settings: […]; total 1 mg/ml; 0.1 N HCl 37° C.; 0 h
Entries and their % Oxycodone, % IVA-IVD in hydrolysis mixture values follow.
Quantity Measured: % Oxycodone, % IVA-IVD in hydrolysis mixture (%)

- Compound: "COc1ccc2c3c1O[C@H]1C4(CCC5(O)[C@@H](C2)N(C)CC[C@]315)O[C@@H](C)C[C@H](C)O4 (stereo partly drawn)"
  Readout Number: 35.8
- Compound: "COc1ccc2c3c1O[C@H]1[C@]4(CCC5(O)[C@@H](C2)N(C)CC[C@]315)O[C@H](C)C[C@H](C)O4 (stereo partly drawn)"
  Readout Number: 24.7
- Compound: "COc1ccc2c3c1O[C@H]1C4(CCC5(O)[C@@H](C2)N(C)CC[C@]315)O[C@H](C)C[C@@H](C)O4 (stereo partly drawn)"
  Readout Number: 17.3
